# assayTarget: recombinant human DPP8 (Homo sapiens, UniProt Q6V1X1)
# Construct: purchased PBS Bioscience
# Sequence (Q6V1X1 whole entry): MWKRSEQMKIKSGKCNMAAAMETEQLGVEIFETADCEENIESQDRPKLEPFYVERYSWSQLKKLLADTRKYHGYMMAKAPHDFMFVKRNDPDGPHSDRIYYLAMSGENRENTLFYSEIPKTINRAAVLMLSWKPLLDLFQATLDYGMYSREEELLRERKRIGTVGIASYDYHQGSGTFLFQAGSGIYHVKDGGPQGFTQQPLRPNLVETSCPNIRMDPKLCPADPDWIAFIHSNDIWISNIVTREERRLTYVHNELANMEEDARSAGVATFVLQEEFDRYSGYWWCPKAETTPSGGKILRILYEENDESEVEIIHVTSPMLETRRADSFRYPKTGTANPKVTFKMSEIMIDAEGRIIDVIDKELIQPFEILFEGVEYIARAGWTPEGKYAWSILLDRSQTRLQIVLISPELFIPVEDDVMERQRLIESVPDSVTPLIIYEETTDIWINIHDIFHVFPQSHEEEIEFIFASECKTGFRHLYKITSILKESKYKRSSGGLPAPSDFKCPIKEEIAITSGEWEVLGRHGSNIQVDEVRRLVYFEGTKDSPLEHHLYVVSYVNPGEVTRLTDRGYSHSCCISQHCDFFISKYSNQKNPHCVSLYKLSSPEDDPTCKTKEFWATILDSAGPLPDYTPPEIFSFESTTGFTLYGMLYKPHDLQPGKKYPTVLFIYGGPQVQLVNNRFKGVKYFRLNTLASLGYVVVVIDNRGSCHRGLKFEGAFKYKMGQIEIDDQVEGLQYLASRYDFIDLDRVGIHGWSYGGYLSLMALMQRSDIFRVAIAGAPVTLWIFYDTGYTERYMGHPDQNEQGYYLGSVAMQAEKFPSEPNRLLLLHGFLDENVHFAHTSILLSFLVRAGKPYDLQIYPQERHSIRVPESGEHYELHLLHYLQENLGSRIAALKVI
# procedureDetails: DPP8 inhibition, fluorogenic substrate Z-Ala-Pro-AMC
# Type: biochemical
# conditionDetails: 25° C., Z-Ala-Pro-AMC substrate
# Method: The compounds according to the present technology were evaluated in terms of the inhibitory effect on the activity of dipeptidyl peptidases including FAP by using a substrate producing fluorescent substances upon enzymatic decomposition. […] Fluorescence intensity was measured using a microplate reader (Flexstation3, Molecular Devices) under the wavelength condition exciting at 380 nm and reading the emission at 460 nm. […]
// reported pIC50 per item
API: returns pIC50 as number; meaning -log10 of concentration in mol/L.

Looking for the measured pIC50 of `N#C[C@@H]1CCCN1C(=O)CN1CC[C@H](NC(=O)c2csc3ccccc23)C1` , can you help? 4.21

Looking for the measured pIC50 of `Cc1cnc2cccc(NC3CCN(CC(=O)N4C[C@@H](F)C[C@H]4C#N)CC3)c2c1` , can you help? 5.08

Looking for the measured pIC50 of `N#C[C@@H]1CC(F)(F)CN1C(=O)CN1CC[C@H](Oc2ccnc3c(C(F)(F)F)cccc23)C1` , can you help? 4.79

Looking for the measured pIC50 of `N#C[C@@H]1CC(F)(F)CN1C(=O)CN1CC[C@H](Oc2cccc3cnccc23)C1` , can you help? 5.08

Origin of the recorded values: patent US11655235B2
